Test system: HepG2
Procedure Details: cytotoxicity call (relative viability < 0.9)
Reported Conditions: 10 µM
The campaign covered roughly 39,000 compounds. About 3,300 (8.5%) were called active. This excerpt belongs to a sample that is enriched for actives.
Readout Label: cytotoxicity call

>>> result("C[C@H]1CN([C@@H](C)CO)C(=O)c2cccc(NC(=O)Nc3cccc4ccccc34)c2O[C@@H]1CN(C)C(=O)Nc1ccc(C(F)(F)F)cc1")
"active"
>>> result("COc1ccc(S(=O)(=O)Nc2ccc3c(c2)C(=O)N([C@@H](C)CO)C[C@@H](C)[C@@H](CN(C)Cc2ccc(Cl)c(Cl)c2)OCCCC[C@@H](C)O3)cc1")
"active"
>>> result("C[C@H]1CN([C@@H](C)CO)C(=O)c2cccc(NC(=O)Nc3cccc4ccccc34)c2O[C@H]1CN(C)C(=O)Nc1ccc(C(F)(F)F)cc1")
"active"

###

System: HepG2
Procedure Details: cytotoxicity call (relative viability < 0.9)
Reported Conditions: 10 µM
About 3,300 (8.5%) of roughly 39,000 compounds were called active. The sample holds actives, similar compounds and a random draw of the others, so the mix is not that of the screen.
Parameter call: string, one of active, inactive

I'd appreciate the recorded outcome for "COc1ccc(S(=O)(=O)N(C)C[C@H]2Oc3ccc(NS(=O)(=O)c4cn(C)cn4)cc3CC(=O)N([C@H](C)CO)C[C@H]2C)cc1" from this test.
inactive

Test call, this molecule: "COc1ccc2c3c([nH]c2c1)[C@H](CO)N(C[C@]13CCN(CC1)CC1CCCC1)C(=O)Nc1cccc(c1)F"
active

Hi, sorry to bother you, what did the test record for "COc1ccc2c3c([nH]c2c1)[C@@H](CO)N(C[C@]13CCN(CC1)C(=O)Nc1cccc(c1)F)C(=O)c1ccccc1" ?
inactive

How did this test come out for "C[C@@H]1CN([C@@H](C)CO)S(=O)(=O)c2ccc(Br)cc2O[C@@H]1CN(C)C(=O)c1ccncc1" ?
inactive

// return assay outcome for "C[C@@H]1CN([C@@H](C)CO)C(=O)Cc2cc(NC(=O)Nc3ccc4c(c3)OCO4)ccc2O[C@H]1CN(C)Cc1ccc(Oc2ccccc2)cc1"
inactive

Test call for this molecule, please: "C[C@H]1CN([C@@H](C)CO)C(=O)Cc2cc(NC(=O)Nc3ccc4c(c3)OCO4)ccc2O[C@H]1CN(C)Cc1ccc(Oc2ccccc2)cc1"
inactive

How did this test come out for "Cc1noc(C)c1NC(=O)N(C)C[C@@H]1Oc2ccc(NC(=O)c3ccncc3)cc2CC(=O)N([C@@H](C)CO)C[C@H]1C" ?
inactive

Given "C[C@@H]1CN([C@H](C)CO)C(=O)Cc2cc(NC(=O)Nc3ccc4c(c3)OCO4)ccc2O[C@@H]1CN(C)Cc1ccc(Oc2ccccc2)cc1" , state the outcome it received in this test.
active

Recorded test call requested for "C[C@@H]1CCCCO[C@H](CN(C)C(=O)Cc2ccccc2)[C@@H](C)CN([C@@H](C)CO)C(=O)c2cc(NC(=O)Nc3ccc(F)cc3)ccc2O1"
inactive

State the result this test recorded for "C[C@H](CO)N1C[C@H](C)[C@H](CN(C)Cc2ccc(Oc3ccccc3)cc2)Oc2ccc(NC(=O)Nc3ccc4c(c3)OCO4)cc2CC1=O" .
active

Hello, I am checking results. What call was entered for "C[C@H](CO)N1C[C@H](C)[C@@H](CN(C)S(=O)(=O)c2cn(C)cn2)Oc2ccc(NC(=O)CCN3CCOCC3)cc2C1=O" ?
inactive

What did this assay record as the result for CC1C(=O)OC2C1CCC1(C)CCC(=O)C(C)C21 (stereo not given) ?
inactive

Field: outcome | Entry: "C[C@H](CO)N1C[C@H](C)[C@@H](CN(C)Cc2ccc(Oc3ccccc3)cc2)Oc2ccc(NC(=O)Nc3ccc4c(c3)OCO4)cc2CC1=O"
inactive

GET /call?item= "COCC(=O)N1C[C@@H](C)[C@H](OC)CN(C)C(=O)c2ccc(NC(=O)c3ccc(F)cc3)cc2OC[C@H]1C" returns the recorded outcome of this test.
inactive

Test call, this molecule: "CN1CCN(C(=O)C[C@H]2C[C@H]3c4cc(NS(=O)(=O)c5ccc(F)cc5)ccc4O[C@H]3[C@@H](CO)O2)CC1"
inactive

###

System: HepG2
Procedure Details: cytotoxicity call (relative viability < 0.9)
Reported Conditions: 10 µM
Among all 39,000 compounds or so, about 3,300 (8.5%) were called active. What follows is part of a selection rich in actives, with near analogues and random picks from the rest.
// classify into active, inactive

In this assay, the call recorded for "C[C@@H]1CN([C@@H](C)CO)C(=O)c2cc(NC(=O)Nc3ccc(C(F)(F)F)cc3)ccc2O[C@@H](C)CCCCO[C@H]1CN(C)C(=O)Nc1cccc2ccccc12" was what?
inactive

Could you please tell me the result logged for "CC(C)NC(=O)Nc1ccc2c(c1)C(=O)N([C@@H](C)CO)C[C@@H](C)[C@@H](CN(C)C(=O)Nc1cccc3ccccc13)OCCCC[C@@H](C)O2" in this assay?
inactive

What did this assay record as the result for "C[C@@H]1CCCCO[C@@H](CN(C)C(=O)Nc2cccc3ccccc23)[C@H](C)CN([C@@H](C)CO)C(=O)c2cc(NC(=O)Nc3cccc4ccccc34)ccc2O1" ?
active

Please state the recorded outcome for this compound: "C[C@@H]1CN([C@H](C)CO)C(=O)c2cc(NC(=O)Nc3ccc(F)cc3)ccc2O[C@@H](C)CCCCO[C@H]1CN(C)S(=O)(=O)c1cccs1"
inactive

Which outcome did this test record for the compound "C[C@@H]1CCCCO[C@H](CN(C)S(=O)(=O)c2cccs2)[C@@H](C)CN([C@H](C)CO)C(=O)c2cc(NC(=O)Nc3ccc(F)cc3)ccc2O1" ?
inactive

Please share the test call associated with "C[C@@H]1CN([C@@H](C)CO)C(=O)c2cc(NC(=O)Nc3ccccc3)ccc2O[C@@H](C)CCCCO[C@@H]1CN(C)S(=O)(=O)c1cccs1" .
inactive

# lookup: test call for "C[C@H](CO)N1C[C@H](C)[C@@H](CN(C)S(=O)(=O)c2cccs2)OCCCC[C@H](C)Oc2ccc(NC(=O)Nc3ccc(F)cc3)cc2C1=O"
inactive

Each compound tested received a call. Report the one for "Cc1noc(C)c1NC(=O)N(C)C[C@@H]1Oc2c(NC(=O)c3ccc(-c4nccs4)cc3)cccc2C(=O)N([C@@H](C)CO)C[C@@H]1C" .
inactive

Write down the call the test reported for this compound. Item: "COc1ccc(NC(=O)Nc2ccc3c(c2)C(=O)N([C@@H](C)CO)C[C@H](C)[C@@H](CN(C)S(=O)(=O)c2cccs2)OCCCC[C@@H](C)O3)cc1"
active

What did this assay record as the result for "CC(C)NC(=O)Nc1ccc2c(c1)C(=O)N([C@H](C)CO)C[C@@H](C)[C@H](CN(C)C(=O)Nc1cccc3ccccc13)OCCCC[C@H](C)O2" ?
inactive

For "COc1ccc(NC(=O)Nc2ccc3c(c2)C(=O)N([C@@H](C)CO)C[C@H](C)[C@H](CN(C)S(=O)(=O)c2cccs2)OCCCC[C@@H](C)O3)cc1" , which call appears in the assay record?
inactive

Field: outcome | Entry: "COc1ccc(NC(=O)Nc2ccc3c(c2)C(=O)N([C@H](C)CO)C[C@H](C)[C@@H](CN(C)S(=O)(=O)c2cccs2)OCCCC[C@H](C)O3)cc1"
inactive

###

System: HepG2
Procedure Details: cytotoxicity call (relative viability < 0.9)
Reported Conditions: 10 µM
The whole screen tested about 39,000 compounds, of which about 3,300 (8.5%) were called active. The sample as a whole holds a higher share of actives than the screen did.
The reply should name one outcome from true (1) (active), false (0) (inactive)

Assay result, entry "C[C@H]1CN([C@@H](C)CO)C(=O)c2cccc(NC(=O)Nc3ccc(C(F)(F)F)cc3)c2O[C@@H]1CN(C)Cc1ccc(C(=O)Nc2ccccc2N)cc1" — outcome?
false (0)

Given "CCOC(=O)C1=C(C)NC(c2ccccc2)=C(C(=O)OCc2ccc([N+](=O)[O-])cc2)[C@@H]1C#Cc1ccccc1" , state the outcome it received in this test.
false (0)

Outcome? "O=C(CN1CCOCC1)N[C@H]1CC[C@@H](CCNC(=O)C2CCC2)O[C@@H]1CO"
false (0)

Please indicate how the test categorized "C[C@H]1CN([C@@H](C)CO)C(=O)c2cccc(NC(=O)Nc3ccc(C(F)(F)F)cc3)c2O[C@@H]1CN(C)C(=O)NC1CCCCC1" .
true (1)

# outcome recorded in this test, key = "COc1ccc(NC(=O)Nc2ccc3c(c2)C(=O)N([C@@H](C)CO)C[C@@H](C)[C@H](CN(C)C(=O)Nc2cccc4ccccc24)O3)cc1"
false (0)

Entry "Cc1noc(C)c1S(=O)(=O)Nc1ccc2c(c1)C(=O)N([C@H](C)CO)C[C@H](C)[C@H](CN(C)C)OCCCC[C@H](C)O2" : call = ?
false (0)

Which result was noted for this molecule in the test: CCOC(=O)C1=C(C)NC(C)=C(C(=O)OC)C1c1cccc([N+](=O)[O-])c1 (stereo not given)
false (0)

Could you check what this test reported for "C[C@H]1CN([C@@H](C)CO)C(=O)c2cccc(NC(=O)Nc3ccc(C(F)(F)F)cc3)c2O[C@H]1CN(C)C(=O)NC1CCCCC1" ?
false (0)

Per the assay record, what outcome was assigned to "COc1cccc(C#Cc2ccc([C@@H]3[C@@H](CO)N4C(=O)CN(S(=O)(=O)c5ccccc5C)C[C@H]34)cc2)c1" ?
false (0)

What outcome does the record of this test show for "COC(=O)C1=C(C)NC(C)=C(C(=O)NCCCN2CCC(c3ccccc3)(c3ccccc3)CC2)[C@@H]1c1ccc([N+](=O)[O-])cc1" ?
true (1)

Recorded test outcome, item "C[C@@H]1CN([C@@H](C)CO)C(=O)c2cccc(NC(=O)Nc3ccc(C(F)(F)F)cc3)c2O[C@@H]1CN(C)C(=O)NC1CCCCC1"
false (0)

What did this assay record as the result for COC(=O)C1=C(C)NC(C)=C(C(=O)OCCN2CCN(C(c3ccccc3)c3ccccc3)CC2)C1c1cccc([N+](=O)[O-])c1 (stereo not given) ?
true (1)

Dear colleague, could you share the recorded outcome for "COc1ccc(S(=O)(=O)N(C)C[C@@H]2Oc3c(NC(=O)Nc4cccc5ccccc45)cccc3C(=O)N([C@@H](C)CO)C[C@H]2C)c(OC)c1" when you have a moment?
true (1)

What outcome does the record of this test show for COC(=O)C1=C(C)NC(C)=C(C(=O)OCCN(C)Cc2ccccc2)C1c1cccc([N+](=O)[O-])c1.Cl (stereo not given) ?
false (0)

Name the outcome recorded for "C[N+](C)(C)CCCC[C@@H]1NC(=O)[C@H]2C[C@@H](C(=O)NCc3ccc(F)cc3)[C@@H](c3ccc(O)cc3)N2C1=O" in the assay.
false (0)

Each molecule tested received a call. Report the one for "C[C@@H]1CN([C@@H](C)CO)C(=O)c2cccc(NC(=O)Nc3cccc4ccccc34)c2O[C@H]1CN(C)S(=O)(=O)c1ccc(OC(F)(F)F)cc1" .
true (1)

Answer briefly: the call reported for "COc1cccc(S(=O)(=O)N(C)C[C@@H]2Oc3c(NC(=O)Nc4cccc5ccccc45)cccc3C(=O)N([C@@H](C)CO)C[C@H]2C)c1" in this assay.
true (1)

Per the records of this test, what outcome belongs to "CCCNC(=O)N(C)C[C@H]1Oc2cc(C#Cc3ccccn3)ccc2S(=O)(=O)N([C@H](C)CO)C[C@@H]1C" ?
false (0)

What did this assay record as the result for "Nn1c(-c2ccncc2)n[nH]c1=S" ?
false (0)

Recorded test call requested for "CN(C)CCCNC(=O)C[C@@H]1CC[C@@H]2[C@H](COC[C@H](O)CN2S(=O)(=O)c2ccccc2)O1"
false (0)

Field: outcome | Entry: "C[C@H]1CN([C@@H](C)CO)C(=O)c2cccc(NC(=O)Nc3cccc4ccccc34)c2O[C@H]1CN(C)S(=O)(=O)c1ccc(F)cc1"
false (0)

GET /call?item= COC(=O)C1=C(C#N)NC(C)=C(C(=O)OC(C)C)C1c1cccc([N+](=O)[O-])c1 (stereo not given) returns the recorded outcome of this test.
true (1)

I'd appreciate the recorded outcome for "C[C@@H]1CN([C@H](C)CO)C(=O)c2cccc(NC(=O)Nc3cccc4ccccc34)c2O[C@@H]1CN(C)S(=O)(=O)c1ccc(Cl)cc1" from this test.
false (0)

Returns: the outcome recorded for "C/C=C(\C(C)=N\O)c1ccccc1" in this assay.
false (0)

So what was the verdict on "NNC(=O)c1cccc([N+](=O)[O-])c1" in this test?
false (0)

Kindly provide the recorded test outcome for the following molecule: "C[C@H](CO)N1C[C@H](C)[C@H](CN(C)S(=O)(=O)c2ccc(F)cc2)Oc2c(NC(=O)Nc3cccc4ccccc34)cccc2C1=O"
false (0)

Dear colleague, could you share the recorded outcome for "Cc1noc(C)c1NC(=O)Nc1ccc2c(c1)C(=O)N([C@H](C)CO)C[C@@H](C)[C@H](CN(C)C(=O)Nc1ccc(C(F)(F)F)cc1)OCCCC[C@H](C)O2" when you have a moment?
false (0)

Recorded test call requested for "C[C@@H]1CCCCO[C@H](CN(C)Cc2ccc(C(=O)O)cc2)[C@H](C)CN([C@@H](C)CO)C(=O)c2cc(NC(=O)Nc3ccc(F)cc3)ccc2O1"
false (0)

Query: recorded result category for "NC(=O)c1cccc(Br)n1" in this test
false (0)

Hi, do you know how "C[C@@H]1CN([C@@H](C)CO)C(=O)c2cccc(NC(=O)Nc3ccc(C(F)(F)F)cc3)c2O[C@H]1CN(C)C(=O)NC1CCCCC1" came out in this test?
true (1)

Values from the antibiotic and cytotoxicity screens of Wong et al. (2023)
